Collected apparent KD of MS2 coat protein values appear next to each entry.
# Test system: MS2 coat protein
# test name: apparent KD of MS2 coat protein; higher = weaker reporter binding
# applied conditions: Eterna round: R107; input ligand: tryptophan 2.4 mM
// return numeric value only (unit: nM, not printed)

Use these answered entries as a reference point.
| sequence content | apparent KD of MS2 coat protein [nM] |
| --- | --- |
| UCUUGGUCCGCAAGGACCGUGAGUUGCGAUACCAGCACGGUAACGUGCCCUUGGCAGCGCACAUGAGGAUCACCCAUGUGGUGUU [#1 Exclusion - Theophylline A Attempt #15 (HarryS)] | 210 |
| UGUACAUGAGGAUCACCCAUGUUACGCGAUACCAGACAUGAGAGUGUCCCUUGGCAGCGUGGAGCUGAUACGGCGGGAAGCCGGA [#10 SameState-TheophyllineA] | 45.9 |
| CGGCCCUCACCUGAGGAUCACCCGGGUGAUACCAGCCUGGAAACAGGCCCUUGGCAGCACCAGGUCAUCAAAGAUGACCAAGCCG [TheoAX 26 #OpenEnded #AlternativeMS2] | 105 |
| ACAUGAGGAUCACCCAUGUGAGAUAGGGAAGGAGCGCAGGAGGAUGCAGGUAGGUCGCCCACAUGAGGAUCACCCGUGUCUGGAG [#11 Exclusion - Arginine A] | 33.1 |
| ACAUGAGGAUCACCCAUGUGGCGUCUUGAUACCAGACGAGAAGUAGUCCCUUGGCAGCAAAUACGUGAGGAUCACACAUGUGCGA [cccmullin3] | 29 |
| GACCCAUGAGUUGGAAAAGCUCAUGGGUCGCGAGGACCGGUACGGCCGCCACUCGGCUGUACAUGAGGAUCACCCAUGUCAGGGU [#1 Same State - Tryptophan A Attempt #25 (HarryS)] | 711 |

INPUT: Any idea what its apparent KD of MS2 coat protein is? The sequence is ACAUGAGGAUCACCCAUGUUCCUCGCCGAUACCAGUGAAGAAGUACGCCCUUGGCAGCGGAAAGAGUAUUUUGGAGAUGAGGUAC [6.Y]
OUTPUT: 88.3

INPUT: Any idea what its apparent KD of MS2 coat protein is? The sequence is "AGCAGCUGGUUUCUUUUCUUUACAGCUGCACGAGGACCGGUACGGCCGCCACUCGAGGACAUGAGGAUCACCCAUGUGCCGGUCG"
OUTPUT: 22.7

INPUT: Any idea what its apparent KD of MS2 coat protein is? The sequence is "UGUAUGUGAUCUGAUACCAGUCCAACUGGUAAACCAUGAGGAUCACCCAUGGAAAAUUGGGACCCUUGGCAGCAGAUCGCAUACU"
OUTPUT: 322

INPUT: Any idea what its apparent KD of MS2 coat protein is? The sequence is CUAUAUGGAAACAUAUAGAAGCGAAAGCAGCGAGGACCGGUACGGCCGCCACUCGCAGAGUGGUGGACAUGAGGAUCACCCAUGU [Design 2]
OUTPUT: 40

====

# System: MS2 coat protein
# test name: apparent KD of MS2 coat protein; designed switch direction (-1 OFF switch, 1 ON switch): 1; higher = weaker reporter binding
# applied conditions: input ligand: none
reported metric: apparent KD of MS2 coat protein (nM)
// return numeric value only (unit: nM, not printed)

Use these answered entries as a reference point.
| sequence content | reported metric | assay result |
| --- | --- | --- |
| GAGCCAGUCCGAGGAUAUUCGUAGGAACACAUGAGGAUCACCCAUGUGGGCUCAGAAGAGCCCUGGGAGAAGGCGGGCUGGCUC [SS-NG2-LRO18] (Eterna round: R96, puzzle: Same State NG 2) | apparent KD of MS2 coat protein | 17.5 |
| GUUACAUGAGGAUCACCCAUGUGUGUGUGGGAGUAAGUGUCUUAGGAUAUCUAUGAUUUAAGUUAAGAGAAGGAAGAUUGUUGU [SS-NG3-LRO01] (Eterna round: R96, puzzle: Same State NG 3) | apparent KD of MS2 coat protein | 395 |
| GGUACAAAUACAGGAUAUGCUAUCCUUUGGGUAGCAGAAGGGUGGUAACAUGAGGAUCACCCAUGUGUGCCAGGGCGUGAGCCC [JL SSNG1 1.98] (Eterna round: R96, puzzle: Same State NG 1) | apparent KD of MS2 coat protein | 657 |
| UGUUGUAUUACAGGAUAUCUAUUGUUUUCAUUUAGAGAAGGGUAUUCACAUGAGGAUCACCCAUGUAUAUACGAGGAAGUUGUG [JMF's solution 78] (Eterna round: R96, puzzle: Same State NG 1) | apparent KD of MS2 coat protein | 39.9 |

Now for another entry.
INPUT: Any idea what its apparent KD of MS2 coat protein is? The sequence is UUGAAGAAUUAAGGAUAUUGAUUACAUAUGUUUAACAUGAGGAUCACCCAUGUGGGUUGCGGUAUCGAGAAGGUAAAUUAAUAG [Mat - same State NG 2 - JL mod - D81] (Eterna round: R96, puzzle: Same State NG 2)
OUTPUT: 174

====

# Test system: K4 kissing-loop RNA reporter;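 also: bound reporter read as fluorescence of individual clusters on recovered sequencing chips by microscopy, with normalized cluster intensities fitted with a binding model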
# test name: apparent KD of K4 kissing-loop reporter; higher = weaker reporter binding
# applied conditions: Eterna round: R107; input ligand: arginine 13.2 mM
Collected apparent KD of K4 kissing-loop reporter values appear next to each entry.
// return numeric value only (unit: nM, not printed)

Use these answered entries as a reference point.
| sequence content | reported metric | unit abbreviation | assay result |
| --- | --- | --- | --- |
| UAAUAAUAAUGAUAAUAAUCAAGUGGUGGACGAGGACCGGUACGGCCGCCACUCGAAAAUGCAGUGAUGUUGUAAUACGGAUAAU [Exclusion - Tryptophan A (Freestyle 2)] | apparent KD of K4 kissing-loop reporter | nM | 180 |
| AAGGCCAGUGAUGUUGGCUUAACCUUCGAUACCAGAACCGAUCGUUUCCCUUGGCAGCGAACACAAUACCUCACAGCGUUAAGUA [theeternabot_sameState_KL_Theo_A_8] | apparent KD of K4 kissing-loop reporter | nM | 134 |

INPUT: Any idea what its apparent KD of K4 kissing-loop reporter is? The sequence is AGGGUAAGGCGUUAACAUGACACCUGGGAAGGAGCGCGGUACACCGCAGGUAGGUCGCCCAGUGAUGUUGGGUGUAAGUAUGAGU [KL-XArg-A23]
OUTPUT: 109

INPUT: Any idea what its apparent KD of K4 kissing-loop reporter is? The sequence is AGGAUCGAAGAUCCAGCAGUCAAGCAAUACCGAGGACCGGUACGGCCGCCACUCGGAGUGAUGUUCCGAAGACUGCAAAAUAAAA [#SwitchBubble 8]
OUTPUT: 1050

INPUT: Any idea what its apparent KD of K4 kissing-loop reporter is? The sequence is AAGUGUCAUUAGACACACUGAUGUAUAAACUAGGAUAUGCUGAUAAGCAGAAGGAGUGAUGUUCCUUUCAACAUCAGAAUUAAAU [KL-XFMN-A1]
OUTPUT: 145

INPUT: Any idea what its apparent KD of K4 kissing-loop reporter is? The sequence is UAACUGCAGUGAUGUUGCAGAUGUCCUGACUAGGAUAUCAGGAAACUGAGAAGGAGUCCCUUCUACACUGCAGAGAAGGAGGACA [[K1]-[K2]-[F1]'-[F1]-[F2]-[F2]'-[K]'-[F]''_Design1]
OUTPUT: 125

INPUT: Any idea what its apparent KD of K4 kissing-loop reporter is? The sequence is CCGAUACAUUAUUCUACGGCCGAGAGUGAUACCAGCCAUAUUUAUGGCCCUUGGCAGCGCAGAUGCAGUGAUGUUGCAUACUUAC [Same State Theophylline A GF 19]
OUTPUT: 119

INPUT: Any idea what its apparent KD of K4 kissing-loop reporter is? The sequence is UUGUUUGGUUGAGAGGUUGGGCGAGAUGAUACCAGUAGAGAAGAGUACCCUUGGCAGCAUAGGAGAGAUAUAGUGAUGUUGUAUA [SSTheophA.R]
OUTPUT: 424

INPUT: Any idea what its apparent KD of K4 kissing-loop reporter is? The sequence is UCCGAGCUUAUUGAUACCAGUUCGGCGAGCUACUAGAGUGAUGUUCUUGUAAGCGUACACAACCCUUGGCAGCAAUAGAGGAGGU [theeternabot_sameState_KL_Theo_B_37]
OUTPUT: 128

INPUT: Any idea what its apparent KD of K4 kissing-loop reporter is? The sequence is CAUUGUACACGGUGCGAAGACCCAAUGGAUACCAGCAAUACAUUAUGCCCUUGGCAGCCAAGAGUGAUGUUCGACGGACUAGAUU [theeternabot_sameState_KL_Theo_A_4]
OUTPUT: 175

INPUT: Any idea what its apparent KD of K4 kissing-loop reporter is? The sequence is GCGCGCGGCGGAGGAUAUAGCAGGUGAUCCAAGAAAGUGAGUGAUGUUUAUGGAGAUGAUGAUAUGUUAGAAGGCCGCCGCGCGC [abcdefghijklmnopqrstu]
OUTPUT: 448

INPUT: Any idea what its apparent KD of K4 kissing-loop reporter is? The sequence is AUUUAUGUAUCAGGAUAUUAGUGAUGUUUGUUUUUGUUAGUGAUGUUGAUAUUUGUUUUAUGUAUUUAAGAAGGGAUUGAGAUGU [wwewmullin]
OUTPUT: 18.5

INPUT: Any idea what its apparent KD of K4 kissing-loop reporter is? The sequence is AAGUACACGAUAGUGUACACCUAGUGAUGUUAGGAUAUGCAGAUAUGCAGAAGGAACGAGUCAUCUGACAAUAGUCGGAUGACAA [FmnAX 8 #OpenEnded #K4Early]
OUTPUT: 70.2

INPUT: Any idea what its apparent KD of K4 kissing-loop reporter is? The sequence is "AAAAUAACCCAGUGAUGUUGGUAUCCAGAUACCAGCGACGAAAGUCGCCCUUGGCAGCUGUGGACGUACAAAAUAAGUACGUCCU"
OUTPUT: 395

INPUT: Any idea what its apparent KD of K4 kissing-loop reporter is? The sequence is AAAAUAAAUCAGUGAUGUUGGUAUCUGGAUACCAGCGAUAAUCAUCGCCCUUGGCAGCCAUGGACGUACAAAAUAAGUACGUCCU [MatMod 17 - Jieux - Same State - Theophylline A]
OUTPUT: 157

INPUT: Any idea what its apparent KD of K4 kissing-loop reporter is? The sequence is GUUACGCAUGGAAGGAGCGCACUCCGAUUGGACGACACAGUGAUGUUGUGGUUCGUUCGAAUGCAGGUAGGUCGCCAUGUGUAAC [Ex Arginine B K4 19]
OUTPUT: 148

INPUT: Any idea what its apparent KD of K4 kissing-loop reporter is? The sequence is UUUUUUAAGAUAUUGACCAACCCGAAGCUACGAGGACCGGUACGGCCGCCACUCGCCAGUGAUGUUGGCGACUGGUGAAACCAUG [KL-XTryp-A24]
OUTPUT: 98.9

INPUT: Any idea what its apparent KD of K4 kissing-loop reporter is? The sequence is AUUCUAUGGAGUGAUGUUCCUGUGAUGUCACGAGGACCGGUACGGCCGCCACUCGAUGUAUUGGUUUUUGAAAGAAACAACUGCA [Same State-Tryptophan A]
OUTPUT: 701

INPUT: Any idea what its apparent KD of K4 kissing-loop reporter is? The sequence is GCAGACCGCAGUGAUGUUGCGAAAUCGGAAGGAGCGCGUGAAAACGCAGGUAGGUCGCCGACACAGGGAUUAUAACCCUGUUUGC [Arginine A K4 16]
OUTPUT: 196

INPUT: Any idea what its apparent KD of K4 kissing-loop reporter is? The sequence is GGGAUGUAGUGAUGUUAUAUUAGAUGUAGACGAGGACCGGUACGGCCGCCACUCGUGAUGGCUGCUAGCACGUUUCGAUGUUUGC [ExTryptoA.Cr]
OUTPUT: 426

INPUT: Any idea what its apparent KD of K4 kissing-loop reporter is? The sequence is AUGAGGAGCAGUGAUCCUACUCCAUGGGAAGGAGCGUAGGAUACUACAGGUAGGUCGCCCAGUGAUGUUGGGCGCGUGCUCUUGG [Isatquesra]
OUTPUT: 130

INPUT: Any idea what its apparent KD of K4 kissing-loop reporter is? The sequence is AAAGAUCUUCUAGAAACUAGAAGAUCAAGAGAGGAUAUCCGAAUUCGGAGAAGGCUCGCUAAGUGAUGUUUGGACCCAAAGGGAA [AK3.1 SS FMN A]
OUTPUT: 984

INPUT: Any idea what its apparent KD of K4 kissing-loop reporter is? The sequence is GGUUCCUCAGUGAUGUUGAGGUGACCUCGGCAGGAUAUAGGCAUUACUAGAAGGGCCAAAAGAACCCUGUGUAGCGACACAGGGA [Beerma]
OUTPUT: 269

Just for reference, the supplement of paper PMC9170038 is where these values come from.
